// data source = ChEMBL document CHEMBL5360655

- Assayed System: UniProt:Q9Z1M0
- Sequence (Q9Z1M0 whole entry): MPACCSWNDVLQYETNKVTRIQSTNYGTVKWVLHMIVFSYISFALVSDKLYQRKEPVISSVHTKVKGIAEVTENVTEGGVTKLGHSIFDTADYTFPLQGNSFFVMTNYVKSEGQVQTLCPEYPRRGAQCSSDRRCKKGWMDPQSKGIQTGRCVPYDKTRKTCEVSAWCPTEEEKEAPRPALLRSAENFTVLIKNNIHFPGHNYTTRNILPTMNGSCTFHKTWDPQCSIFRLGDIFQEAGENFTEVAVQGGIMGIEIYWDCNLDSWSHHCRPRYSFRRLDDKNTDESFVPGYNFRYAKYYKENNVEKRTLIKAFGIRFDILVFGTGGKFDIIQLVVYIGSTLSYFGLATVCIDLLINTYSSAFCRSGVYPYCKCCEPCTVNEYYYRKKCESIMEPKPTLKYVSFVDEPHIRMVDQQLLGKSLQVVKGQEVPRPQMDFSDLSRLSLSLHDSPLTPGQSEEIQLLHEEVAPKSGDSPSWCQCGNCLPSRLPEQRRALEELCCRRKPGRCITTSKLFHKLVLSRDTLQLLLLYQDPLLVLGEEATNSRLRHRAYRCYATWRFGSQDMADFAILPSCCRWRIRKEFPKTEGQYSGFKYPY
- Assay Procedure: Antagonist activity at mouse P2X7 receptor expressed in HEK293 cells assessed as inhibition of ATP-induced receptor pore formation at 200 nM by propidium iodide dye uptake based fluorescence analysis
- Format: cell-based
- Stated Conditions: filed as antagonist
Parameter Measured: inhibition (%)

# Structure Smiles String, inhibition [%]
records = [
    ("CC(C)S(=O)(=O)c1ccc(-c2ncc(C(=O)NCc3cn(-c4cc(Cl)ccn4)nn3)s2)cc1", 67.6),
    ("CS(=O)(=O)c1ccc(-c2nc(C(=O)NCc3cn(-c4cc(Br)ccn4)nn3)cs2)cc1", 101),
    ("O=C(NCc1cn(-c2cc(Cl)ccn2)nn1)c1cnc(-c2cccc(NS(=O)(=O)N3CCOCC3)c2)s1", 82.4),
    ("O=C(NCc1cn(-c2cc(Cl)ccn2)nn1)c1cnc(-c2cccc(NS(=O)(=O)C3CC3)c2)s1", 68.3),
    ("CS(=O)(=O)c1ccc(-c2ccc(Cl)c(C(=O)NCc3cn(-c4cc(Cl)ccn4)nn3)c2)cc1", 66),
    ("O=C(NCC1(N2CCN(c3ccccc3)CC2)CCOCC1)c1cccnc1Sc1ccccc1", 87.3),
]
